System name: Axl (Homo sapiens, UniProt P30530)
Construct: Seed HUVECs (10K cells/well) in EBM-2 complete media
Assay notes: Phospho-AKT HTRF, HUVEC, Axl ABX-L, 8 pt
Protocol conditions: HUVEC cells, pAkt(Ser473) HTRF, Axl ABX-L stimulation
pEC50: −log10 of the molar value.
Label rule, in plain words: pEC50 of 7 and up is Fulfilled, under 7 is Not fulfilled.

| Molecule | Answer label |
| --- | --- |
| COc1cc2c(Oc3ccc(NC(=O)c4ncc(-c5ccccc5)s4)nc3)ccnc2cc1OCCCN1CCOCC1 [Compound 48] | Not fulfilled |
| COc1cc2c(Oc3ccc(NC(=O)c4nc(-c5ccccc5)c5c(n4)C4CCN5CC4)nc3)ccnc2cc1OCCCN1CCOCC1 [Compound 6] | Fulfilled |

Could you now look at the following molecule, please?
Task: Could you verify whether the entry CCOC1CCN(c2cccc(C(=O)Nc3ccc(Oc4ccnc5cc(OCCCN6CCOCC6)c(OC)cc45)cn3)n2)CC1 [Compound 29] shows pEC50 of no less than 7?
Output: Not fulfilled

---

System name: Axl (Homo sapiens, UniProt P30530)
Construct: Seed HUVECs (10K cells/well) in EBM-2 complete media
Sequence (P30530 26-894): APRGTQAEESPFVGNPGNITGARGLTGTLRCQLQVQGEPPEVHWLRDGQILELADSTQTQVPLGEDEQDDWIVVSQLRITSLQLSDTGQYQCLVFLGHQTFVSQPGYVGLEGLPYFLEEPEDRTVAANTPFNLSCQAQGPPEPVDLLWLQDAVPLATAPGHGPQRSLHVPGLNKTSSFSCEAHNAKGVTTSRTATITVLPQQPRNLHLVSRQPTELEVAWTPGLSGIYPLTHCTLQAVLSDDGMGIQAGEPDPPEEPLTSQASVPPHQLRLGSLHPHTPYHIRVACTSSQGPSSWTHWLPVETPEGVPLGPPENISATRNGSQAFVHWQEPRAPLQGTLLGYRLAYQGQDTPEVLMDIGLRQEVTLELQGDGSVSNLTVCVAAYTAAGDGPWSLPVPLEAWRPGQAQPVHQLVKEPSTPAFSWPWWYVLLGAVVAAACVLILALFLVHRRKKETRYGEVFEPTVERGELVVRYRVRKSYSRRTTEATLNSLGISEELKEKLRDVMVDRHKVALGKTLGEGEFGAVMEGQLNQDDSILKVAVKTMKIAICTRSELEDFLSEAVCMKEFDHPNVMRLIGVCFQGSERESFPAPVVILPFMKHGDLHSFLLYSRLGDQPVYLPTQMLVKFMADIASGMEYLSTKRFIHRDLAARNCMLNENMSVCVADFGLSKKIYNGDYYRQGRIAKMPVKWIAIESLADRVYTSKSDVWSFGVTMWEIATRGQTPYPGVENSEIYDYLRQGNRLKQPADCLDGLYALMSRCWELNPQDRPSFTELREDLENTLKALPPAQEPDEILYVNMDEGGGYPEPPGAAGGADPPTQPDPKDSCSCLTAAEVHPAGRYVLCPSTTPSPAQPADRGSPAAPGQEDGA
Assay notes: Phospho-AKT HTRF, HUVEC, Axl ABX-L, 8 pt
Protocol conditions: HUVEC cells, pAkt(Ser473) HTRF, Axl ABX-L stimulation
Recorded EC50 for the following compounds
Lab book: enter the figure in µM, no units written.

For orientation, consider the following solved cases.
| Compound | Measurement label | Unit annotation | Numeric result |
| --- | --- | --- | --- |
| COc1cc2ncnc(Oc3ccc(NC(=O)c4nc(-c5ccccc5)c5c(n4)C4CCN5CC4)nc3)c2cc1OC | EC50 | µM | 0.0268 |
| COc1cc2c(Oc3ccc(NC(=O)c4cc(N5CCCCC5)ccn4)nc3)ccnc2cc1OCCCN1CCOCC1 | EC50 | µM | 0.0538 |
| COc1cc2c(Oc3ccc(NC(=O)c4cccc(N5CCCCC5)n4)nc3)ccnc2cc1OCCCN1CCOCC1 | EC50 | µM | 0.0668 |
| COc1cc2c(Oc3ccc(NC(=O)c4cc(N5CCCC5)ccn4)nc3)ccnc2cc1OCCCN1CCOCC1 | EC50 | µM | 0.0432 |
| COc1cc2c(Oc3ccc(NC(=O)c4csc(N5CCC(O)CC5)n4)nc3)ccnc2cc1OCCCN1CCOCC1 [Compound 45] | EC50 | µM | 0.649 |

Task: Provide only the value of recorded EC50 for COc1cc2c(Oc3ccc(NC(=O)c4cc(N5CC6(CCOCC6)C5)ccn4)nc3)ccnc2cc1OCCCN1CCOCC1
Output: 0.114

Task: Provide only the value of recorded EC50 for COc1ccnc(C(=O)Nc2ccc(Oc3ccnc4cc(OCCCN5CCOCC5)c(OC)cc34)cn2)c1
Output: 0.188

Task: Provide only the value of recorded EC50 for COc1cc2c(Oc3ccc(NC(=O)c4cc(C)ccn4)nc3)ccnc2cc1OCCCN1CCOCC1
Output: 0.462

---

System name: MerTK (Homo sapiens)
Construct: Seed HUVECs (10K cells/well) in EBM-2 complete media
Sequence (Q12866 21-999): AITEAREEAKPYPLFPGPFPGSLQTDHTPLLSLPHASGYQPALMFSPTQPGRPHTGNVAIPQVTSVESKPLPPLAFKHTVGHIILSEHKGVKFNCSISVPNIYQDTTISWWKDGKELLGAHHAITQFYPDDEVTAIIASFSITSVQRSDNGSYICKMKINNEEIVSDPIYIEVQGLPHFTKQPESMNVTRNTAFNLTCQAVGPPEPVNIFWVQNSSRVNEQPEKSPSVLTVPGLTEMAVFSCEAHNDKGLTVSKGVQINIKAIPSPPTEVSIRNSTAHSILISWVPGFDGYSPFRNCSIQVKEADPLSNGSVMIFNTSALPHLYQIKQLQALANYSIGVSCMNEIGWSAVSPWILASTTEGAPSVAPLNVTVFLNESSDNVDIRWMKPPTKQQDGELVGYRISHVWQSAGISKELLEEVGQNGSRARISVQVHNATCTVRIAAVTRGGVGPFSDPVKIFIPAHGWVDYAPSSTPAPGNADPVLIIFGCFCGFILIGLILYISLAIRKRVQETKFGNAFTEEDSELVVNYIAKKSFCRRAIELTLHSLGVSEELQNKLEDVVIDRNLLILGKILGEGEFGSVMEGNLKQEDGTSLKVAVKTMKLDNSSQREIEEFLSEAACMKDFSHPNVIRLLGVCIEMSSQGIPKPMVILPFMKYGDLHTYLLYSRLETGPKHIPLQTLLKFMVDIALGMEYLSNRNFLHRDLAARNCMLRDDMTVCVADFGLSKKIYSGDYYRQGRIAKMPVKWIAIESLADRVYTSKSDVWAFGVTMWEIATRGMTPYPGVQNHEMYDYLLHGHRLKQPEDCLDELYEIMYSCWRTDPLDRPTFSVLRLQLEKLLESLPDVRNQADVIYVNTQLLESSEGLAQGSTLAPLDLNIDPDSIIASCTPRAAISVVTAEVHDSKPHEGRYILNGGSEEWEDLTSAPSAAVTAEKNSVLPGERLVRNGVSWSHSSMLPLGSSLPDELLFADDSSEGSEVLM
Assay notes: Phospho-AKT HTRF, HUVEC, Mer-XL, 8 pt (pAKT HTRF-HUVEC assay, anti-human MerTK-XL stimulation)
Protocol conditions: HUVEC cells, pAkt(Ser473) HTRF, anti-human MerTK-XL stimulation 1 ug/mL 10 minutes
Recorded log10(EC50) for the following compounds
Field: value | Transform: log10 | Quantity: EC50 | Unit: nM

| Compound | log10(EC50) |
| --- | --- |
| COc1cc2c(Oc3ccc(NC(=O)c4cccc(N5CC(F)(F)C5)n4)nc3)ccnc2cc1OCCCN1CCOCC1 | 0.97 |
| CCOC1CCN(c2cccc(C(=O)Nc3ccc(Oc4ccnc5cc(OCCCN6CCOCC6)c(OC)cc45)cn3)n2)CC1 | 2.84 |
| COc1cc2c(Oc3ccc(NC(=O)c4csc(N5CCCCC5)n4)nc3)ccnc2cc1OCCCN1CCOCC1 | 1.11 |
| COc1cc2c(Oc3ccc(NC(=O)c4cc(F)ccn4)nc3)ccnc2cc1OCCCN1CCOCC1 | 2.49 |
| COc1cc2c(Oc3ccc(NC(=O)c4cccc(N5CCC(C)(C)CC5)n4)nc3)ccnc2cc1OCCCN1CCOCC1 | 2.01 |

Task: Fill: log10(EC50) (MerTK (Homo sapiens)) for this compound COc1cc2c(Oc3ccc(NC(=O)c4csc(N5CCC(O)CC5)n4)nc3)ccnc2cc1OCCCN1CCOCC1 [Compound 45]
Output: 2.66

---

System name: Axl (Homo sapiens, UniProt P30530)
Construct: Seed HUVECs (10K cells/well) in EBM-2 complete media
Assay notes: Phospho-AKT HTRF, HUVEC, Axl ABX-L, 8 pt
Protocol conditions: HUVEC cells, pAkt(Ser473) HTRF, Axl ABX-L stimulation
Description: [The source words this procedure for another target and reports this target under the same test.] Example 13: PAKT HTRF-HUVEC Assay Seed HUVECs (10K cells/well) in EBM-2 complete media (EBM-2 basal medium plus EGM-2 BulletKit supplements) overnight at 37° C., 5% CO2 in Costar 96-well white clear-bottom plates. Remove culture media and starve cells for 3-4 hours in 50 μL/well EBM-2 basal medium. […] Performed pAkt(Ser473) HTRF assay in ProxiPlate-384 Plus, white 384-shallow well microplate according to the vendor protocol and read plates with a SpectralMax Paradigm plate reader. […]
Recorded pEC50 for the following molecules
Hey, just a heads up that pEC50 is the negative log base 10 of the concentration in molar.

For orientation, consider the following solved cases.
| Molecule | pEC50 |
| --- | --- |
| COc1cc2c(Oc3ccc(NC(=O)c4cc(N5CCC(F)(F)CC5)ccn4)nc3)ccnc2cc1OCCCN1CCOCC1 [Compound 21] | 7.20 |
| COc1cc2c(Oc3ccc(NC(=O)c4cc(C(F)(F)F)ccn4)nc3)ccnc2cc1OCCCN1CCOCC1 [Compound 34] | 6.49 |
| COc1cc2c(Oc3ccc(NC(=O)c4cccc(N5CCC(O)CC5)n4)nc3)ccnc2cc1OCCCN1CCOCC1 [Compound 24] | 6.13 |
| COc1cc2c(Oc3ccc(NC(=O)c4cccc(N5CCC(C)(C)CC5)n4)nc3)ccnc2cc1OCCCN1CCOCC1 [Compound 27] | 7.07 |
| COc1cc2c(Oc3ccc(NC(=O)c4nc(-c5ccccc5)c5c(n4)C4CCN5CC4)cc3F)ccnc2cc1OCCCN1CCOCC1 [Compound 36] | 8.24 |
| COc1cc2c(Oc3ccc(NC(=O)c4csc(-c5ccccc5)n4)nc3)ccnc2cc1OCCCN1CCOCC1 [Compound 42] | 7.30 |
| COc1cc2c(Oc3ccc(NC(=O)c4cc(F)ccn4)nc3)ccnc2cc1OCCCN1CCOCC1 [Compound 31] | 6.13 |
| COc1cc2c(Oc3ccc(NC(=O)c4cc(N5CCC(C)(C)CC5)ccn4)nc3)ccnc2cc1OCCCN1CCOCC1 [Compound 22] | 6.73 |

Task: Provide only the value of recorded pEC50 for COc1cc2c(Oc3ccc(NC(=O)c4ncc(N5CCCCC5)s4)nc3)ccnc2cc1OCCCN1CCOCC1 [Compound 47]
Output: 6.89

Task: Provide only the value of recorded pEC50 for COc1cc2c(Oc3ccc(NC(=O)c4cc(N5CCN(C)CC5)ccn4)nc3)ccnc2cc1OCCCN1CCOCC1 [Compound 1]
Output: 6.39

Task: Provide only the value of recorded pEC50 for COc1cc2c(Oc3ccc(NC(=O)c4cc(N5CCC(O)CC5)ccn4)nc3)ccnc2cc1OCCCN1CCOCC1 [Compound 8, trifluoroacetic acid]
Output: 6.64

Task: Provide only the value of recorded pEC50 for COc1cc2c(Oc3ccc(NC(=O)c4csc(N5CCCCC5)n4)nc3)ccnc2cc1OCCCN1CCOCC1 [Compound 46]
Output: 7.68

All figures here come from patent US10851093B2.
